The reported numbers originate from PubChem BioAssay AID431.

Test: viability loss of HPDE-C7K cells – cell-based, fluorescence, HTS, primary screen (AID 431);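 further: 0% = DMSO solvent wells and 100% = doxorubicin-treated wells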
Conditions: HPDE-C7K KRASV12 cells, Alamar Blue viability, 48 h; at 10 µM; active compounds read high
The campaign covered roughly 63,000 compounds. About 1,100 (1.7%) were called active. The list comes from a sample in which actives are over-represented; it also holds close analogues and randomly drawn compounds. Measured potencies and affinities stand elsewhere.
metric_name: cytotoxicity (%)
Use % as the unit, but write only the number.

Recorded cytotoxicity of CC(=O)Oc1c(Cl)c(N2CCOCC2)c(OC(C)=O)c2ccccc12 , please. -27.5

Please do the same for Cc1nn(C)c(C)c1S(=O)(=O)N1CCCC(C(=O)NC2CCCCC2)C1 (stereo unspecified) as well. -4.9

Please do the same for Cc1n[nH]c(C)c1Cc1ccc(C(=O)O)cc1 as well. -13.2

Please do the same for Cc1ccc(O)c(CC(C)C)n1 as well. 5.8

Please do the same for COc1ccc(CCNS(=O)(=O)c2cccc(F)c2)cc1OC as well. -5.1

Please do the same for Cc1ccc(NC(=O)CSCc2c(C)noc2C)cc1C as well. -2.9

Please do the same for OC(COc1ccc(Cl)c2ccccc12)CN1CCN(c2ccccn2)CC1 (stereo unspecified) as well. 18.3

Please do the same for Cc1ccccc1Cc1c(C)nc2c(C(=O)N3CCN(Cc4ccc5c(c4)OCO5)CC3)cnn2c1C as well. -9.2

Please do the same for COc1cc2c(C(=O)N3CCN(Cc4ccc5c(c4)OCO5)CC3)cn(C)c(=O)c2cc1OC as well. -9

Please do the same for CN1CCN(S(=O)C23CC4CC(CC(C4)C2)C3)CC1 (stereo unspecified) as well. -18.9

Please do the same for CC(=O)c1ccccc1OC(=O)c1ccco1 as well. -0.8
